Origin of values: the kinase profiling compilation of Christmann-Franck et al. (2016)

target: CSNK2A1 (human) (UniProt P68400); assay: radiometric filter-binding kinase assay; details: compound 1.0 µM
Sequence (P68400 whole entry, looked up): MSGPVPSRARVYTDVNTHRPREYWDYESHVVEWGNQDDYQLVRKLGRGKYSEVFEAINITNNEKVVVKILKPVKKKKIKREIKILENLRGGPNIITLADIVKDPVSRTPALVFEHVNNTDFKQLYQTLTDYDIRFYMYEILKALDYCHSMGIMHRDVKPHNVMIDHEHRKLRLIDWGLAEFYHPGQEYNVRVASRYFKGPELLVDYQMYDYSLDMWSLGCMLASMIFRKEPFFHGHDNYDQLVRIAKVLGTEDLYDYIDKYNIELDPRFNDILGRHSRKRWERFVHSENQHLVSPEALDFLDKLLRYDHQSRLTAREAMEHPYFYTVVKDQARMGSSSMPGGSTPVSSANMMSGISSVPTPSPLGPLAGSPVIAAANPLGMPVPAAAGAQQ
Measured parameter: residual activity (%)

>  <Molecule>
Cc1cc(NC(=O)c2cccc(NC(=O)/C=C/CN(C)C)c2)ccc1Nc1nccc(-c2cccnc2)n1

>  <Unit tag>
%

>  <residual activity>
77

$$$$
>  <Molecule>
CC(C)(C#N)c1ccc(N2C(=O)OCc3cnc4ccc(-c5cnc6ccccc6c5)cc4c32)cc1

>  <Unit tag>
%

>  <residual activity>
97

$$$$
>  <Molecule>
Cn1nc(Nc2ccc(F)cc2)c2c(N)ncnc21

>  <Unit tag>
%

>  <residual activity>
91

$$$$
>  <Molecule>
COc1cc(C(=O)N2CCOCC2)c(F)cc1Nc1ncc(C(F)(F)F)c(NC2CC2)n1

>  <Unit tag>
%

>  <residual activity>
96

$$$$
>  <Molecule>
O=C(NOCC(O)CO)c1ccc(F)c(F)c1Nc1ccc(I)cc1Cl (stereo unspecified)

>  <Unit tag>
%

>  <residual activity>
111

$$$$
>  <Molecule>
NC(=O)c1cc2c(-c3cccc(-c4ccccc4)c3)cnc(N)c2s1

>  <Unit tag>
%

>  <residual activity>
94

$$$$

###

target: CHEK2 (human) (UniProt O96017); assay: radiometric filter-binding kinase assay; conditions: compound 1.0 µM
Sequence (O96017 whole entry, looked up): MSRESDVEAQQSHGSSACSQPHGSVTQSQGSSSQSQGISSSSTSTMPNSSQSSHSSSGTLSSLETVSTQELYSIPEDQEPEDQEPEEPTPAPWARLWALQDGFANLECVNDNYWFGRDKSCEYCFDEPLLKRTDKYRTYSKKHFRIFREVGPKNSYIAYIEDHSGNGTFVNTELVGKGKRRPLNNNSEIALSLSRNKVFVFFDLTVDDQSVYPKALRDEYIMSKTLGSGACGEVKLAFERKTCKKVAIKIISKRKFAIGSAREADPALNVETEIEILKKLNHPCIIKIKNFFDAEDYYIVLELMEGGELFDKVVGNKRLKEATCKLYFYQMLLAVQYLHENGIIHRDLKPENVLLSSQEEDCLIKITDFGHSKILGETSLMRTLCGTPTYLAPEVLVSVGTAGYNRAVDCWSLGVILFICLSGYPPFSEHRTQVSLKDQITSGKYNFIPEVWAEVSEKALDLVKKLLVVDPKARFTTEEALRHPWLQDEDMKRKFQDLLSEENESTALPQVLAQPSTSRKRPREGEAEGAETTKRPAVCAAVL
Measured parameter: residual activity (%)

>  <Compound>
Cc1cccc(-c2nn(C(=S)Nc3ccccc3)cc2-c2ccnc3ccccc23)n1

>  <Tgt>
CHEK2 (human) (UniProt O96017)

>  <Unit tag>
%

>  <residual activity>
110

$$$$
>  <Compound>
Cc1cc(NC(=O)c2cccc(NC(=O)/C=C/CN(C)C)c2)ccc1Nc1nccc(-c2cccnc2)n1

>  <Tgt>
CHEK2 (human) (UniProt O96017)

>  <Unit tag>
%

>  <residual activity>
72

$$$$
>  <Compound>
Nc1cccc2c1CN(C1CCC(=O)NC1=O)C2=O (centres undefined)

>  <Tgt>
CHEK2 (human) (UniProt O96017)

>  <Unit tag>
%

>  <residual activity>
96

$$$$
>  <Compound>
C[C@H]1CCCC(=O)CCC/C=C/c2cc(O)cc(O)c2C(=O)O1

>  <Tgt>
CHEK2 (human) (UniProt O96017)

>  <Unit tag>
%

>  <residual activity>
93

$$$$

###

molecular target: CaMK1 (human); test: radiometric filter-binding kinase assay; settings: compound 1.0 µM
Measured parameter: residual activity (%)

>  <Mol>
COc1ccc(N(C(=O)Nc2c(C)cccc2C)c2cc(Nc3ccc(N4CCN(C)CC4)cc3)ncn2)c(OC)c1

>  <Measured parameter>
residual activity

>  <Unit tag>
%

>  <Measured value>
90

$$$$
>  <Mol>
O=C(N[C@@H](COc1ccc2[nH]c(=O)[nH]c2c1)c1ccccc1)c1cccn(Cc2ccc(F)c(F)c2)c1=O

>  <Measured parameter>
residual activity

>  <Unit tag>
%

>  <Measured value>
92

$$$$
>  <Mol>
O=C(NOC[C@H](O)CO)c1ccc(F)c(F)c1Nc1ccc(I)cc1Cl

>  <Measured parameter>
residual activity

>  <Unit tag>
%

>  <Measured value>
96

$$$$
>  <Mol>
O=C1NC(=S)N[C@@H]1Cc1c[nH]c2ccccc12

>  <Measured parameter>
residual activity

>  <Unit tag>
%

>  <Measured value>
89

$$$$
>  <Mol>
CCNc1nc(Nc2cc(F)c(C(=O)N3CCOCC3)cc2OC)ncc1C(F)(F)F

>  <Measured parameter>
residual activity

>  <Unit tag>
%

>  <Measured value>
74

$$$$
>  <Mol>
NC(=O)Nc1ccc2c(c1)/C(=C/c1cc(-c3cccnc3)c[nH]1)C(=O)N2

>  <Measured parameter>
residual activity

>  <Unit tag>
%

>  <Measured value>
69

$$$$
>  <Mol>
Cn1c(=O)c2c(ncn2C)n(C)c1=O

>  <Measured parameter>
residual activity

>  <Unit tag>
%

>  <Measured value>
101

$$$$
>  <Mol>
O=C(Nc1nc2cc(C(F)(F)F)cc(NC3CC3)n2n1)c1cccnc1

>  <Measured parameter>
residual activity

>  <Unit tag>
%

>  <Measured value>
109

$$$$
>  <Mol>
COc1cc(C(=O)N2CCOCC2)c(F)cc1Nc1ncc(C(F)(F)F)c(NC2CC2)n1

>  <Measured parameter>
residual activity

>  <Unit tag>
%

>  <Measured value>
92

$$$$
>  <Mol>
Cc1ccc(-c2ccc3c(ccc4sc5c(c43)NC[C@@H](C)NC5=O)n2)cn1

>  <Measured parameter>
residual activity

>  <Unit tag>
%

>  <Measured value>
97

$$$$
>  <Mol>
CC(C)(C#N)c1ccc(N2C(=O)OCc3cnc4ccc(-c5cnc6ccccc6c5)cc4c32)cc1

>  <Measured parameter>
residual activity

>  <Unit tag>
%

>  <Measured value>
73

$$$$
>  <Mol>
Cc1ccc(=O)n(-c2ccccc2)c1

>  <Measured parameter>
residual activity

>  <Unit tag>
%

>  <Measured value>
98

$$$$
>  <Mol>
c1ccc2c(-c3cnn4cc(-c5ccc(N6CCNCC6)cc5)cnc34)ccnc2c1

>  <Measured parameter>
residual activity

>  <Unit tag>
%

>  <Measured value>
85

$$$$
>  <Mol>
NC(=O)c1c(NC(=O)C2CC2)sc2c1CCCC2

>  <Measured parameter>
residual activity

>  <Unit tag>
%

>  <Measured value>
98

$$$$
>  <Mol>
CNc1nc(-c2ccc3c(N)n[nH]c3c2)cc(N2C[C@@H](C(=O)NC3CCCCC3)CC[C@H]2C)n1

>  <Measured parameter>
residual activity

>  <Unit tag>
%

>  <Measured value>
89

$$$$

###

molecular target: MAPK14 (human); test: radiometric filter-binding kinase assay; conditions: compound 10.0 µM
Measured parameter: residual activity (%)

>  <Molecule>
CCCC(CCC)C(=O)O

>  <Unit tag>
%

>  <residual activity>
107

$$$$

I: COc1cc2ncn(-c3cc(OCc4ccccc4S(C)(=O)=O)c(C#N)s3)c2cc1OC
II: Cc1cccc(Nc2nn(C)c3ncnc(N)c23)c1
Q: Would you kindly point out which of I and II has the smaller residual activity figure? Identify your pick by its label.
Result: I

a: NCC(=O)Nc1ccc(-n2nc(C(F)(F)F)cc2-c2ccc3c(ccc4ccccc43)c2)cc1
b: Cc1ccc(Sc2cnc(Nc3cccc(Br)n3)s2)cc1C(=O)N1CCN(C(=O)CN)CC1
Q: Would you kindly point out which of a and b has the smaller residual activity figure? Identify your pick by its label.
Result: b
(b: 47%, a: 80%)

###

biological target: PKN2 (human) (UniProt Q16513); assay: radiometric filter-binding kinase assay; settings: compound 1.0 µM
Sequence (Q16513 whole entry, looked up): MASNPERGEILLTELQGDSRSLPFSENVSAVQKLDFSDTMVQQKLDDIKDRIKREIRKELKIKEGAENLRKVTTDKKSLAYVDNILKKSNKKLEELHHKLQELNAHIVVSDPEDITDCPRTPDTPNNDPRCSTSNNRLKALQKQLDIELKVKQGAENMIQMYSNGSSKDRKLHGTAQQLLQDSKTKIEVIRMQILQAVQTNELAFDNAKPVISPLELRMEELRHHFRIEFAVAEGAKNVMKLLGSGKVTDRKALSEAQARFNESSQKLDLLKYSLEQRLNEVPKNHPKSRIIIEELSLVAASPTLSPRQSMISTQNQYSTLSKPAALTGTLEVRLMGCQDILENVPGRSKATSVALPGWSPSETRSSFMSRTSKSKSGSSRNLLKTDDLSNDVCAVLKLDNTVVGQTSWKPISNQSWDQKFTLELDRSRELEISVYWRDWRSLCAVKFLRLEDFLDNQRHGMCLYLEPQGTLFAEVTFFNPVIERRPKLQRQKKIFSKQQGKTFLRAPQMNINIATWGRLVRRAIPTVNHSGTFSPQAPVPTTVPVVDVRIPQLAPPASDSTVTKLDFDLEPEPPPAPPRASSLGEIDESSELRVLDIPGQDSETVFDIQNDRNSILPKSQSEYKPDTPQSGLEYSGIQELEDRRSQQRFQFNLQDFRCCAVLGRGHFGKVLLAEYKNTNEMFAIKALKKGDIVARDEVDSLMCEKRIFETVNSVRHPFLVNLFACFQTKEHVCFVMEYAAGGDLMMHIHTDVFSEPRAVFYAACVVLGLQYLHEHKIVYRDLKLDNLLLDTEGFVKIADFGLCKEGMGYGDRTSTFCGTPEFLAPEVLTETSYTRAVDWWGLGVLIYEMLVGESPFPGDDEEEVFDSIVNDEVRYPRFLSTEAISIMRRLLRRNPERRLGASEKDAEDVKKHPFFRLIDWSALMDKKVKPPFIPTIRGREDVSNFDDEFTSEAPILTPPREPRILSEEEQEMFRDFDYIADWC
Measured parameter: residual activity (%)

See these solved cases before continuing.
>  <Mol>
NS(=O)(=O)OC[C@@H]1C[C@@H](n2ccc3c(N[C@H]4CCc5ccccc54)ncnc32)C[C@@H]1O

>  <residual activity (%)>
90

$$$$
>  <Mol>
CCc1cncnc1N1CCN(Cc2nc3cc(C(F)(F)F)ccc3[nH]2)CC1

>  <residual activity (%)>
86

$$$$

I: NC(=O)Nc1ccc2c(c1)/C(=C/c1cc(-c3cccnc3)c[nH]1)C(=O)N2
II: COc1cc2ncn(-c3cc(OCc4ccccc4S(C)(=O)=O)c(C#N)s3)c2cc1OC
III: Cc1cccc(-c2nn(C(=S)Nc3ccccc3)cc2-c2ccnc3ccccc23)n1
Q: Order by residual activity, ascending. Would you mind listing the labels in the order requested?
Result: I, II, III
(I: 5%, II: 63%, III: 91%)

###

tested on: PAK2 (human), Q13177 [T402E]; test: radiometric filter-binding kinase assay; details: compound 10.0 µM
Sequence (Q13177 whole entry T402E, looked up): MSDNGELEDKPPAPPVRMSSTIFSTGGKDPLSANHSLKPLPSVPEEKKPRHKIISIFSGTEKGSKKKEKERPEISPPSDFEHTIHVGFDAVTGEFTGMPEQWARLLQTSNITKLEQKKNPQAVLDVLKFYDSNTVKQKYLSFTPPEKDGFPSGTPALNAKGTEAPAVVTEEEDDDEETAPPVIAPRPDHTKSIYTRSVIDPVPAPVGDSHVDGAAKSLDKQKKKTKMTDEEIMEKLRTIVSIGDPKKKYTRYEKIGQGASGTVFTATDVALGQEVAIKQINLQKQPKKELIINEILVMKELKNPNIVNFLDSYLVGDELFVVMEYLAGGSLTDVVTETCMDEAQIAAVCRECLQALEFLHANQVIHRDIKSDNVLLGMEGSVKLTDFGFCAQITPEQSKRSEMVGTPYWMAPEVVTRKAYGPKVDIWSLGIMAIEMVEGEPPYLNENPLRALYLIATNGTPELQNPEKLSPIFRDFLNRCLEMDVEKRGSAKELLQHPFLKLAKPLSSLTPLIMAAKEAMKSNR
Measured parameter: residual activity (%)

>  <Mol>
O=C(NOC[C@H](O)CO)c1ccc(F)c(F)c1Nc1ccc(I)cc1Cl

>  <residual activity (%)>
91

$$$$
>  <Mol>
COc1cc(C(=O)N2CCOCC2)c(F)cc1Nc1ncc(C(F)(F)F)c(NC2CC2)n1

>  <residual activity (%)>
88

$$$$
>  <Mol>
NC(=O)c1ccc(-c2ccc(Oc3cncc4sc(-c5nn[nH]n5)cc34)cc2)cc1

>  <residual activity (%)>
90

$$$$

###

target: UniProt Q7L7X3; assay: radiometric filter-binding kinase assay; conditions: compound 0.1 µM
Sequence (Q7L7X3 whole entry, looked up): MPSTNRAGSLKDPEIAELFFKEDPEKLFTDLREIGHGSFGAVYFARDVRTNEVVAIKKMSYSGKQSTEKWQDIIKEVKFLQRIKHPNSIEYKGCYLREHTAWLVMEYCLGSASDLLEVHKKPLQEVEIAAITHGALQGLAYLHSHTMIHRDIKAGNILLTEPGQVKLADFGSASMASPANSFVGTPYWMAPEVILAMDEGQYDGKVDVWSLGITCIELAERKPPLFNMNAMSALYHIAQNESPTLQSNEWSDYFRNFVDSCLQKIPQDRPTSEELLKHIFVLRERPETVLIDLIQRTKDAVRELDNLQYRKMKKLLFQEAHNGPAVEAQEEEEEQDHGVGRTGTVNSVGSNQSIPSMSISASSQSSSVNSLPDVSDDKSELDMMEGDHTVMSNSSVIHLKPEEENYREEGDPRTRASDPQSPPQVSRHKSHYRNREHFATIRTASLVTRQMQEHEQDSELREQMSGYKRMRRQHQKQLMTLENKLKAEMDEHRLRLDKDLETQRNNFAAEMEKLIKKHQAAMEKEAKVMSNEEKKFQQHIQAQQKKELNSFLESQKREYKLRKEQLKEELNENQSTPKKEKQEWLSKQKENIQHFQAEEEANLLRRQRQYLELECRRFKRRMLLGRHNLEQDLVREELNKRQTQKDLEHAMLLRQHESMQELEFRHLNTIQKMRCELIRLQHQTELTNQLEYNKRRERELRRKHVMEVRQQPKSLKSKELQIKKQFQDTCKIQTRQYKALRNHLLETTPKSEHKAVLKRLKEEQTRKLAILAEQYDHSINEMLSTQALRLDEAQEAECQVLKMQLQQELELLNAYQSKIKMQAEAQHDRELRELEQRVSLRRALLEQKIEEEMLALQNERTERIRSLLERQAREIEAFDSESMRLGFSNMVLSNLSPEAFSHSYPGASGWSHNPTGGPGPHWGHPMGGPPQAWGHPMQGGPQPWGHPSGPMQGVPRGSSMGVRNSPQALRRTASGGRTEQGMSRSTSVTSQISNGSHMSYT
Measured parameter: residual activity (%)

>  <Compound>
Cc1ccc(-c2ccc3c(ccc4sc5c(c43)NC[C@@H](C)NC5=O)n2)cn1

>  <Tgt>
UniProt Q7L7X3

>  <Unit tag>
%

>  <residual activity>
109

$$$$
>  <Compound>
O=C(N[C@@H](COc1ccc2[nH]c(=O)[nH]c2c1)c1ccccc1)c1cccn(Cc2ccc(F)c(F)c2)c1=O

>  <Tgt>
UniProt Q7L7X3

>  <Unit tag>
%

>  <residual activity>
111

$$$$
>  <Compound>
O=C(Nc1nc2cc(C(F)(F)F)cc(NC3CC3)n2n1)c1cccnc1

>  <Tgt>
UniProt Q7L7X3

>  <Unit tag>
%

>  <residual activity>
101

$$$$
>  <Compound>
COc1cc(O)c2c(c1)/C=C/C[C@H](O)[C@H](O)C(=O)/C=C\C[C@H](C)OC2=O

>  <Tgt>
UniProt Q7L7X3

>  <Unit tag>
%

>  <residual activity>
103

$$$$
>  <Compound>
C=CC(=O)N1CCC[C@@H](n2nc(-c3ccc(Oc4ccccc4)cc3)c3c(N)ncnc32)C1

>  <Tgt>
UniProt Q7L7X3

>  <Unit tag>
%

>  <residual activity>
113

$$$$
>  <Compound>
NC1(c2ccc(-c3nc4ccn5c(=O)[nH]nc5c4cc3-c3ccccc3)cc2)CCC1

>  <Tgt>
UniProt Q7L7X3

>  <Unit tag>
%

>  <residual activity>
104

$$$$
>  <Compound>
O=C(NCCCNc1nc(Nc2cccc(CN3CCOCC3)c2)ncc1C1CC1)C1CCC1

>  <Tgt>
UniProt Q7L7X3

>  <Unit tag>
%

>  <residual activity>
78

$$$$
>  <Compound>
CN(C)C/C=C/C(=O)Nc1cccc(C(=O)Nc2ccc(Nc3nccc(-c4cccnc4)n3)cc2)c1

>  <Tgt>
UniProt Q7L7X3

>  <Unit tag>
%

>  <residual activity>
96

$$$$
>  <Compound>
COc1cc(O)c2c(c1)[C@H]1OC1C[C@H](O)[C@H](O)C(=O)/C=C\C[C@H](C)OC2=O (some centres not stated)

>  <Tgt>
UniProt Q7L7X3

>  <Unit tag>
%

>  <residual activity>
101

$$$$
>  <Compound>
NC(=O)c1cc(-c2ccnc(NC3CCCCC3)c2)nc(N2CCNCC2)c1

>  <Tgt>
UniProt Q7L7X3

>  <Unit tag>
%

>  <residual activity>
103

$$$$
>  <Compound>
O=C(O)c1ccc(-c2c[nH]c3ncc(-c4ccccc4)cc23)cc1C1CCCC1

>  <Tgt>
UniProt Q7L7X3

>  <Unit tag>
%

>  <residual activity>
98

$$$$
>  <Compound>
c1ccc2c(-c3cnn4cc(-c5ccc(N6CCNCC6)cc5)cnc34)ccnc2c1

>  <Tgt>
UniProt Q7L7X3

>  <Unit tag>
%

>  <residual activity>
102

$$$$
